- EXPERIMENT_NOTES: Drug level in ICR mouse lung at 20 mg/kg administered intratracheally after 30 mins
- Format: ADME, organism-based
- Parameters: dose 20 mg/kg, route endotracheal
- SETUP_CONDITIONS: inhaled or intranasal, read-out: Drug uptake
Would you mind telling me the reported concentration at 0.5 h of each entry?

Q: I am curious: what concentration at 0.5 h value has been reported for "C[N+]1(C)CCC[C@@H](OC(=O)C(O)(c2ccccc2)c2ccccc2)C1.[Br-]" ?
A: 5100 ng/mL

Q: I am curious: what concentration at 0.5 h value has been reported for "C[N+]1(C)CCC[C@H](OC(=O)C(O)(c2ccccc2)c2ccccc2)C1.[Br-]" ?
A: 6200 ng/mL

====

- EXPERIMENT_NOTES: Drug level in ICR mouse lung at 20 mg/kg administered intratracheally after 5 mins
- Assay type: ADME, organism-based
- Set-up: dose 20 mg/kg, route endotracheal
- SETUP_CONDITIONS: inhaled or intranasal, read-out: Drug uptake
RECORDED_ENDPOINT: concentration at 5 min (µg/mL)
Express your answer in µg/mL, writing the number without its unit.

Q: I am curious: what concentration at 5 min value has been reported for "C[N+]1(C)CCC[C@@H](OC(=O)C(O)(c2ccccc2)c2ccccc2)C1.[Br-]" ?
A: 44.5

Q: I am curious: what concentration at 5 min value has been reported for "C[N+]1(C)CCC[C@H](OC(=O)C(O)(c2ccccc2)c2ccccc2)C1.[Br-]" ?
A: 36.4

Numbers sourced from ChEMBL document CHEMBL3286356.
